Target: T1, AFP158/HLA-A*02:01 complex (human)
T1 construct: flowed over the chip in SPR; also called AFP158 pro
Assay: SPR, scFv captured, pMHC in flow;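 note: complex injected at several concentrations over crude scFv, association then running-buffer dissociation, KD estimated from kinetic on- and off-rate constants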
ASSAY METRIC: Kd (nM)

{"columns": ["BINDER", "ASSAY METRIC", "TEST VALUE"],
 "data": [
  ["LD97N (scFv, AS170036 VL1VH1 scFv mutein) scFv: QSALTQPRSVSGSPGQSVTISCAGTSSDVGSENYVSWYQQHPGKAPKLMIYQVNKRASGVPDRFSGSKSGNTASLTISGLQAEDEADYYCASYRSSNHNIVFGGGTKLTVLGGGGSGGGGSGGGGSEVQLVESGGGLVQPGGSLRLSCAASGFTFSSYAMSWVRQAPGKGLEWVSTINSGTGSPYYADSVKGRFTISRDNSKNTLYLQMNSLRAEDTAVYYCAKNFFDGSWFLGPPAMDYWGQGTLVTVSSHHHHHH", "Kd", 240],
  ["LY34V (scFv, AS170036 VL1VH1 scFv mutein) scFv: QSALTQPRSVSGSPGQSVTISCAGTSSDVGSENVVSWYQQHPGKAPKLMIYQVNKRASGVPDRFSGSKSGNTASLTISGLQAEDEADYYCASYRSSDHNIVFGGGTKLTVLGGGGSGGGGSGGGGSEVQLVESGGGLVQPGGSLRLSCAASGFTFSSYAMSWVRQAPGKGLEWVSTINSGTGSPYYADSVKGRFTISRDNSKNTLYLQMNSLRAEDTAVYYCAKNFFDGSWFLGPPAMDYWGQGTLVTVSSHHHHHH", "Kd", 740],
  ["LY93L (scFv, AS170036 VL1VH1 scFv mutein) scFv: QSALTQPRSVSGSPGQSVTISCAGTSSDVGSENYVSWYQQHPGKAPKLMIYQVNKRASGVPDRFSGSKSGNTASLTISGLQAEDEADYYCASLRSSDHNIVFGGGTKLTVLGGGGSGGGGSGGGGSEVQLVESGGGLVQPGGSLRLSCAASGFTFSSYAMSWVRQAPGKGLEWVSTINSGTGSPYYADSVKGRFTISRDNSKNTLYLQMNSLRAEDTAVYYCAKNFFDGSWFLGPPAMDYWGQGTLVTVSSHHHHHH", "Kd", 180],
  ["LE32T (scFv, AS170036 VL1VH1 scFv mutein) scFv: QSALTQPRSVSGSPGQSVTISCAGTSSDVGSTNYVSWYQQHPGKAPKLMIYQVNKRASGVPDRFSGSKSGNTASLTISGLQAEDEADYYCASYRSSDHNIVFGGGTKLTVLGGGGSGGGGSGGGGSEVQLVESGGGLVQPGGSLRLSCAASGFTFSSYAMSWVRQAPGKGLEWVSTINSGTGSPYYADSVKGRFTISRDNSKNTLYLQMNSLRAEDTAVYYCAKNFFDGSWFLGPPAMDYWGQGTLVTVSSHHHHHH", "Kd", 770]
]}
